# system_name: EGFR exon 20 NPG insertion (H773_V774insNPG) (Homo sapiens, UniProt P00533, cells depend on it, form not given)
# Sequence (P00533 with tags, fused parts or gaps INS772GNP, form open): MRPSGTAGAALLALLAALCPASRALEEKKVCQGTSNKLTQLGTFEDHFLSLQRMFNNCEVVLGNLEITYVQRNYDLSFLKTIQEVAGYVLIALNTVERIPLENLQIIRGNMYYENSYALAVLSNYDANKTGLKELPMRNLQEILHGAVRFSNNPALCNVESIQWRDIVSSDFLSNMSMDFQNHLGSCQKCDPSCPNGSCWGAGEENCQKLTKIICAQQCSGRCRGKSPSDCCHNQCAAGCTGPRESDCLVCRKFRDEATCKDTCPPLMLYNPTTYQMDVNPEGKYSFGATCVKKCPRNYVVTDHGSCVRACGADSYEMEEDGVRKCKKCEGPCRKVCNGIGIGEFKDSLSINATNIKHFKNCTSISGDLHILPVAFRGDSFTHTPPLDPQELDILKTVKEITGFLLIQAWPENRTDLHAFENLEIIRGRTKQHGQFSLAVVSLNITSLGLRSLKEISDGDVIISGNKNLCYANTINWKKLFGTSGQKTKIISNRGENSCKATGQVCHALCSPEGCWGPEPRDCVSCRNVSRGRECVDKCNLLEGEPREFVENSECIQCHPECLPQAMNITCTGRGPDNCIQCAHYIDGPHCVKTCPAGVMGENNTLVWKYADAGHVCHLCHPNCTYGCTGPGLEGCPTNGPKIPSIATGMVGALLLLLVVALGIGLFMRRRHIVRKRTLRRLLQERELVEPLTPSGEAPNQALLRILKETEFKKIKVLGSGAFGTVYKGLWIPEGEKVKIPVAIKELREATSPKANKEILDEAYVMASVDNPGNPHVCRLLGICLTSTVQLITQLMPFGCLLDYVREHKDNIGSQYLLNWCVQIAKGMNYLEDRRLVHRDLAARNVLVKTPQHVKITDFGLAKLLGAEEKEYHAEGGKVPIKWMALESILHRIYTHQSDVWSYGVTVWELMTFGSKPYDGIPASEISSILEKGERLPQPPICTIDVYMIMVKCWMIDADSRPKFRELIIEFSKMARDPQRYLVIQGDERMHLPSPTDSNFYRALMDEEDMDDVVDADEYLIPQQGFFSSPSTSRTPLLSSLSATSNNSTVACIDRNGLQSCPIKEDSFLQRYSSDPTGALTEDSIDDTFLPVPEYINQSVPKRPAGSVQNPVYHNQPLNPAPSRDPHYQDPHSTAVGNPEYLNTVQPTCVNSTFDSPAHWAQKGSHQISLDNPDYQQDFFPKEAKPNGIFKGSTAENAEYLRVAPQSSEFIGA
# test_summary: Ba/F3-EGFR-Exon20-NPG cell anti-proliferation assay (MTS, CellTiter 96 AQueous One)
# Assay type: cell-based
# assay_setup: 72 h, MTS signal
measure: IC50

Reference set (3 entries):
INSERT INTO results (molecule, meas_value) VALUES
  ('C=CC(=O)Nc1cc(Nc2ncc(C#N)c(-c3c4n(c5ccccc35)CCOC4)n2)c(OC)cc1N(C)CCN(C)C', '< 100 nM'),
  ('C=CC(=O)Nc1cc(Nc2ncc(Cl)c(-c3c4n(c5ccccc35)CCOC4)n2)c(OC)cc1N(C)CCN(C)C', '500 to 1000 nM'),
  ('C=CC(=O)Nc1cc(Nc2nccc(-c3c4n(c5ccccc35)CC(O)CC4)n2)c(OC)cc1N(C)CCN(C)C (stereo not shown)', '< 100 nM');

Now let's try a different one.
[in] What measured IC50 goes with C=CC(=O)Nc1cc(Nc2nccc(-c3c4n(c5ccccc35)CCOC4)n2)c(OC)cc1N(C)CCN(C)C ?
[out] < 100 nM

// provenance: patent US20210323976A1
